molecular target: biotinylated human IL-17 (binding to IL17R/Fc) (Homo sapiens); construct: purchased R&D Systems 317-ILB (IL-17, biotinylated); 177-IR (IL17R/Fc); assay: IL-17 competition ELISA II (captured IL17R/Fc, biotinylated IL-17)
outcome measure: IC50

CN1CCOCCN(C)C(=O)[C@@H](Cc2ccccn2)NC(=O)[C@@H](Cc2ccc(NC(=O)[C@H](Cc3ccccc3Cl)NC(=O)C(F)(F)c3ccccc3)cc2)NC(=O)CC2(CCCC2)CC1=O; < 100 nM
C[C@H]1NC(=O)[C@@H](Cc2ccc(NC(=O)[C@H](Cc3ccccc3Cl)NC(=O)Cc3ccc(F)cc3)cc2)NC(=O)CC2(CCCC2)NC(=O)CCCCCCNC1=O; < 100 nM
O=C1CC2(CCCC2)CC(=O)N[C@H](Cc2ccc(NC(=O)[C@H](Cc3ccccc3Cl)NC(=O)Cc3ccccc3)cc2)C(=O)NCC(=O)N[C@H](C(=O)O)CCCCN1; < 100 nM
C[C@H]1NC(=O)[C@@H](Cc2ccc(NC(=O)[C@H](Cc3ccccc3Cl)NC(=O)C(F)(F)c3ccccc3)cc2)NC(=O)CC2(CCCC2)NC(=O)CCNC(=O)CCN(C)C1=O; < 100 nM
O=C1CC2(CCCC2)CC(=O)N[C@H](Cc2ccc(NC(=O)[C@H](Cc3ccc(F)cc3Cl)NC(=O)C(F)(F)c3ccccc3)cc2)C(=O)NCCOCCOCCN1; < 100 nM
C[C@H]1NC(=O)[C@@H](Cc2ccc(NC(=O)[C@@H](Cc3ccccc3Cl)NC(=O)Cc3ccc(F)cc3)cc2)NC(=O)[C@@H]2CC[C@@H](C2)C(=O)NCCCCCNC1=O; 100 to 1000 nM
CCCC[C@H](NC(=O)Cc1ccccc1)C(=O)Nc1ccc(C[C@H]2NC(=O)CC3(CCCC3)CC(=O)NCCCCCNC(=O)CNC2=O)cc1; < 100 nM
CN1CCCCCN(C)C(=O)[C@@H](CCC(N)=O)NC(=O)[C@@H](Cc2ccc(NC(=O)[C@@H](NC(=O)Cc3cccc(O)c3)C3CCCCC3)cc2)NC(=O)CC2(CCCC2)CC1=O; < 100 nM
CN1CCNCCOC(=O)CC2(CCCC2)CC(=O)N(C)[C@H](Cc2ccc(NC(=O)[C@H](Cc3ccccc3Cl)NC(=O)Cc3ccccc3)cc2)C(=O)N[C@H](Cc2ccccc2)C1=O; 100 to 1000 nM
O=C1CC2(CCCC2)CC(=O)N[C@H](Cc2ccc(NC(=O)[C@H](Cc3ccccc3Cl)NC(=O)c3cccnc3)cc2)C(=O)NCCCCN1; 100 to 1000 nM
C[C@H]1NC(=O)[C@@H](Cc2ccc(NC(=O)[C@@H](NC(=O)Cc3ccccc3)C3CCCCC3)cc2)NC(=O)CC2(CCCC2)CC(=O)N[C@H](C(=O)O)CCCCNC1=O; < 100 nM

====

target: IL17A (Homo sapiens); assay: Surface Plasmon Resonance (SPR) analysis of compound interactions with IL17A; details: SPR binding to IL17A
outcome measure: Kd

O=C1CCCNC(=O)[C@@H](Cc2ccc(NC(=O)[C@H](Cc3ccccc3F)NC(=O)Cc3ccccc3)cc2)NC(=O)CC2(CCCC2)CC(=O)N[C@H](C(=O)O)CCCCN1; 100 to 1000 nM
CC(=O)N[C@@H](Cc1ccccc1Cl)C(=O)Nc1ccc(C[C@H]2NC(=O)CC3(CCCC3)CC(=O)N(CCO)CCCCCNC(=O)CCNC2=O)cc1; < 100 nM
O=C1CNC(=O)[C@@H](Cc2ccc(NC(=O)[C@H](Cc3ccc(Cl)cc3Cl)NC(=O)Cc3ccccc3)cc2)NC(=O)CC2(CCCC2)CC(=O)NCCCCCN1; < 100 nM
O=C1CNC(=O)[C@@H](Cc2ccc(NC(=O)[C@H](Cc3ccccc3Cl)NC(=O)c3ccncc3)cc2)NC(=O)CC2(CCCC2)CC(=O)NCCCCCN1; < 100 nM
COC(=O)[C@H]1CCCCNC(=O)CCCNC(=O)[C@@H](Cc2ccc(NC(=O)[C@H](Cc3ccccc3)NC(=O)Cc3ccccc3)cc2)NC(=O)CC2(CCCC2)CC(=O)N1; 100 to 1000 nM
COC(=O)[C@@H]1CCCCNC(=O)CNC(=O)[C@@H](Cc2ccc(NC(=O)[C@H](Cc3ccccc3F)NC(=O)Cc3ccccc3)cc2)NC(=O)CC2(CCCC2)CC(=O)N1; < 100 nM
COC(=O)[C@@H]1CCCCNC(=O)CCCNC(=O)[C@@H](Cc2ccc(NC(=O)[C@H](Cc3ccccc3C)NC(=O)Cc3ccccc3)cc2)NC(=O)CC2(CCCC2)CC(=O)N1; 100 to 1000 nM
COC(=O)[C@H]1CCCCNC(=O)CCCNC(=O)[C@@H](Cc2ccc(NC(=O)[C@H](Cc3ccccc3)NC(=O)c3ccccc3)cc2)NC(=O)CC2(CCCC2)CC(=O)N1; 100 to 1000 nM
O=C1CNC(=O)[C@@H](Cc2ccc(NC(=O)[C@H](Cc3ccccc3Br)NC(=O)Cc3ccc(O)cc3)cc2)NC(=O)CC2(CCCC2)CC(=O)NCCCCCN1; < 100 nM
O=C1CNC(=O)[C@@H](Cc2ccc(NC(=O)[C@H](Cc3ccccc3Br)NC(=O)Cc3ccccc3)cc2)NC(=O)CC2(CCCC2)CC(=O)NCCCCCN1; < 100 nM
COC(=O)[C@@H]1CCCCNC(=O)CCCNC(=O)[C@@H](Cc2ccc(NC(=O)[C@H](Cc3ccccc3F)NC(=O)Cc3ccccc3)cc2)NC(=O)CC2(CCCC2)CC(=O)N1; 100 to 1000 nM

====

Molecular target: biotinylated human IL-17 (binding to IL17R/Fc) (Homo sapiens, UniProt Q16552)
Construct: 177-IR (IL17R/Fc)
Sequence (Q16552 20-155 limits assumed): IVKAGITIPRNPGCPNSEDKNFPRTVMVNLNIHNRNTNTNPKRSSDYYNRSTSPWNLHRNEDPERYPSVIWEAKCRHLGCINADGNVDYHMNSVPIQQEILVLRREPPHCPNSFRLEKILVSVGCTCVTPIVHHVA
Assay: IL-17 competition ELISA II (captured IL17R/Fc, biotinylated IL-17)
pIC50: −log10 of the molar value.
Measured pIC50 accompanies every entry in the list below.
outcome measure: pIC50

C[C@H]1NC(=O)[C@@H](Cc2ccc(NC(=O)[C@H](Cc3ccccc3Cl)NC(=O)c3cccnc3)cc2)NC(=O)CC2(CCCC2)CC(=O)NCCCCCNC1=O [Compound 353]; > 7.00
C[C@H]1NC(=O)[C@@H](Cc2ccc(NC(=O)[C@H](Cc3ccccc3Cl)NC(=O)C(F)(F)c3ccccc3)cc2)NC(=O)C[C@H](Cc2ccccc2)NC(=O)CCNC(=O)CCNC1=O [Compound 633]; > 7.00
O=C1CC2(CCCC2)CC(=O)N[C@H](Cc2ccc(NC(=O)[C@H](Cc3ccccc3Cl)NC(=O)Cc3ccc(CO)cc3)cc2)C(=O)NCCNCCN1 [Compound 412]; 6.00 to 7.00
COC(=O)N[C@@H](Cc1ccccc1Cl)C(=O)Nc1ccc(C[C@H]2NC(=O)CC3(CCCC3)CC(=O)N(C)CCCCCN(C)C(=O)[C@@H](C)NC2=O)cc1 [Compound 570]; > 7.00
O=C1CC2(CCCC2)CC(=O)N[C@H](Cc2ccc(NC(=O)[C@@H](NC(=O)Cc3ccc(CO)cc3)C3CCCCC3)cc2)C(=O)NCCOCCOCCN1 [Compound 344]; 6.00 to 7.00

====

Molecular target: recombinant human IL17a (binding to its receptor IL17R) (Homo sapiens, UniProt Q16552)
Construct: 177-IR (IL17R/Fc)
Assay: IL-17 competition ELISA I (IL17a coated, IL17R/Fc binding)
Experimental: ELISA I: The ability of the compounds to block binding of IL17a to its receptor, IL17R, was analyzed in a competition ELISA format. High binding 96-well plates (Costar #9018) were coated with 20 nM of recombinant human IL17a (R&D Systems #317-ILB) in PBS (0.64 μg/mL), 100 μL/well, for 30 min at 37′C followed by 5 min at 4′C. […] After the sufficient color development, the reaction was fixed by the addition of 100 μL/well 0.5 N HCl and absorbance was measured at 450 nm on Biotek plate reader. […]
pIC50: −log10 of the molar value.
Measured pIC50 accompanies every entry in the list below.
outcome measure: pIC50

O=C1CNC(=O)[C@@H](Cc2ccc(NC(=O)[C@H](Cc3ccccc3Cl)NC(=O)Cc3ccc(O)cc3)cc2)NC(=O)CC2(CCCC2)CC(=O)NCCCCCN1 [Compound 279]; > 7.00
COC(=O)[C@@H]1CCCCNC(=O)CNC(=O)[C@@H](Cc2ccc(NC(=O)[C@H](Cc3ccccc3Cl)NC(=O)c3cccnc3)cc2)NC(=O)CC2(CCCC2)CC(=O)N1 [Compound 250]; > 7.00
C[C@H]1NC(=O)[C@@H](Cc2ccc(NC(=O)[C@H](Cc3ccccc3Cl)NC(=O)Cc3ccccc3)cc2)NC(=O)CC2(CCCC2)CC(=O)NCCCCCNC1=O [Compound 288]; > 7.00
